assay: Inhibitory concentration against protein phosphatase 1 (PP1) using phosphorylase-a assay
readoutKind: pIC50
// scale note: pIC50 = -log10(conc_M); give the bare number

[in] Given CO[C@@H](Cc1ccccc1)[C@@H](C)/C=C(C)/C=C/[C@H](NC(C)=O)[C@H](C)C(=O)N[C@H](C)C(=O)O , state its recorded pIC50.
[out] 6.00

[in] Given CO[C@@H](Cc1ccccc1)[C@@H](C)/C=C(C)/C=C/[C@H](NC(C)=O)[C@H](C)C(=O)N[C@@H](C)C(=O)O , state its recorded pIC50.
[out] 3.77

[in] Given CO[C@@H](Cc1ccccc1)[C@@H](C)/C=C(C)/C=C/[C@H](NC(C)=O)[C@H](C)C(=O)NCC(=O)O , state its recorded pIC50.
[out] 5.25

----------
assay: Inhibitory concentration against protein phosphatase 1 (PP1) using pNPP assay
Answer each item with its documented IC50.

[in] Given CC(=O)N[C@@H](/C=C/C(C)=C/CCCc1ccccc1)[C@H](C)C(=O)N[C@H](C)C(=O)O , state its recorded IC50.
[out] > 100 µM

[in] Given CC(=O)N[C@@H](/C=C/C(C)=C/c1ccccc1Cc1ccccc1)[C@H](C)C(=O)N[C@H](C)C(=O)O , state its recorded IC50.
[out] > 100 µM

[in] Given CO[C@@H](Cc1ccccc1)[C@@H](C)/C=C(C)/C=C/[C@H](NC(C)=O)[C@H](C)C(=O)N1[C@H](C(=O)O)CC[C@H]1C(=O)O , state its recorded IC50.
[out] > 50 µM

[in] Given CO[C@@H](Cc1ccccc1)[C@@H](C)/C=C(C)/C=C/[C@H](NC(C)=O)[C@H](C)C(=O)N[C@H](C)C(=O)O , state its recorded IC50.
[out] 25 µM

[in] Given CO[C@@H](Cc1ccccc1)[C@@H](C)/C=C(C)/C=C/[C@H](NC(C)=O)[C@H](C)C(=O)N1C[C@H](C(=O)O)C[C@@H]1C(=O)O , state its recorded IC50.
[out] > 100 µM

[in] Given CO[C@@H](Cc1ccccc1)[C@@H](C)/C=C(C)/C=C/[C@H](NC(C)=O)[C@H](C)C(=O)N1CCCC1 , state its recorded IC50.
[out] > 100 µM

[in] Given CO[C@@H](Cc1ccccc1)[C@@H](C)/C=C(C)/C=C/[C@H](NC(C)=O)[C@H](C)C(=O)N1[C@@H](C(=O)O)CC[C@H]1C(=O)O , state its recorded IC50.
[out] > 50 µM

[in] Given COC(=O)[C@H]1CCCN1C(=O)[C@@H](C)[C@H](/C=C/C(C)=C/[C@H](C)[C@H](Cc1ccccc1)OC)NC(C)=O , state its recorded IC50.
[out] > 100 µM

[in] Given CO[C@@H](Cc1ccccc1)[C@@H](C)/C=C(C)/C=C/[C@H](NC(C)=O)[C@H](C)C(=O)N1C[C@H](O[Si](C(C)C)(C(C)C)C(C)C)C[C@@H]1C(=O)O , state its recorded IC50.
[out] > 100 µM

[in] Given CO[C@@H](Cc1ccccc1)[C@@H](C)/C=C(C)/C=C/[C@H](NC(C)=O)[C@H](C)C(=O)N1C[C@@H](C(=O)O)C[C@@H]1C(=O)O , state its recorded IC50.
[out] > 100 µM

[in] Given CC(=O)N[C@@H](/C=C/C(C)=C/c1ccc(-c2ccccc2)cc1)[C@H](C)C(=O)N[C@H](C)C(=O)O , state its recorded IC50.
[out] > 100 µM

[in] Given CO[C@@H](Cc1ccccc1)[C@@H](C)/C=C(C)/C=C/[C@H](NC(C)=O)[C@H](C)C(=O)N1CCC[C@@H]1C(=O)O , state its recorded IC50.
[out] > 55 µM

[in] Given COC(=O)[C@@H]1CCCN1C(=O)[C@@H](C)[C@H](/C=C/C(C)=C/[C@H](C)[C@H](Cc1ccccc1)OC)NC(C)=O , state its recorded IC50.
[out] > 100 µM

[in] Given CO[C@@H](Cc1ccccc1)[C@@H](C)/C=C(C)/C=C/[C@H](NC(C)=O)[C@H](C)C(=O)N(CC(=O)O)CC(=O)O , state its recorded IC50.
[out] > 100 µM

[in] Given CO[C@@H](Cc1ccccc1)[C@@H](C)/C=C(C)/C=C/[C@H](NC(C)=O)[C@H](C)C(=O)N1C[C@H](C(=O)O)C[C@H]1C(=O)O , state its recorded IC50.
[out] > 100 µM

[in] Given CO[C@@H](Cc1ccccc1)[C@@H](C)/C=C(C)/C=C/[C@H](NC(C)=O)[C@H](C)C(=O)N1CCC[C@H]1C(=O)O , state its recorded IC50.
[out] > 100 µM
